Biological target: LMP7 (purified human immuno proteasome) (Homo sapiens, UniProt P20618+P28062)
Assay: Determination of LMP7 activity (fluorescence intensity assay, Suc-LLVY-AMC)
Conditions: purified human immuno proteasome 0.25 nM, incubation for 20 minutes at 25° C., Suc-LLVY-AMC 40 μM
Experimental: Determination of LMP7 Activity: Measurement of LMP7 inhibition is performed in 384 well format based on fluorescence intensity assay. Purified human immuno proteasome (0.25 nM) and serial diluted compounds in DMSO (range of concentrations from 30 μM to […]) or controls are incubated for 20 minutes or 120 minutes (long incubation) at 25° C. in assay buffer containing 50 mM Tris pH 7.4, 0.03% SDS, 1 mM EDTA and 1% DMSO. […]
In this section we review reported IC50 values for a set of molecules.
Measurement Type: IC50

1. COCC(=O)N[C@@H](Cc1coc2ccccc12)B(O)O [Compound 28]	≤ 0.05 µM
2. Cc1cccc2c(C[C@@H](NC(=O)[C@H]3CCCO3)B(O)O)coc12 [Compound 30]	0.05 to 0.5 µM
3. CSCC(=O)N[C@@H](Cc1coc2c(C(F)(F)F)cccc12)B(O)O [Compound 3]	≤ 0.05 µM
4. CSCC(=O)N[C@@H](Cc1ccc(C)cc1C)B(O)O [Compound 21]	≤ 0.05 µM
5. O=C(N[C@@H](Cc1coc2ccccc12)B(O)O)[C@@H]1COCCO1 [Compound 39]	≤ 0.05 µM
6. CSCC(=O)N[C@H](Cc1coc2c(F)cccc12)B(O)O [Compound 23]	0.05 to 0.5 µM
7. CSCC(=O)NC(Cc1coc2c(F)cccc12)B(O)O (stereo not drawn) [Compound 9]	≤ 0.05 µM
8. O=C(N[C@@H](Cc1coc2ccccc12)B(O)O)C1OCCc2ccccc21 (stereo partly drawn) [Compound 38]	≤ 0.05 µM
9. CSCC(=O)N[C@@H](Cc1coc2c(C)cccc12)B(O)O [Compound 6]	≤ 0.05 µM

* * *

target: LMP7 (purified human immuno proteasome) (Homo sapiens, UniProt P20618+P28062); assay: Determination of LMP7 activity (fluorescence intensity assay, Suc-LLVY-AMC); conditions: purified human immuno proteasome 0.25 nM, incubation for 20 minutes at 25° C., Suc-LLVY-AMC 40 μM
In this section we review reported IC50 values for a set of compounds.
Measurement Type: IC50

1. CSCC(=O)N[C@@H](Cc1coc2c(F)cccc12)B(O)O [Compound 12]	≤ 50 nM
2. CSCC(=O)NC(CC1COc2ccccc21)B(O)O (stereo not drawn) [Compound 19]	≤ 50 nM
3. COc1cccc2occ(C[C@H](NC(=O)CSC)B(O)O)c12 [Compound 4]	500 to 5000 nM
4. O=C(N[C@@H](Cc1coc2ccccc12)B(O)O)[C@H]1CCOC1 [Compound 32]	≤ 50 nM
5. Cc1cccc2c(C[C@H](NC(=O)[C@H]3CCCO3)B(O)O)coc12 [Compound 29]	≤ 50 nM
6. CCSCC(=O)N[C@@H](Cc1coc2ccccc12)B(O)O [Compound 13]	≤ 50 nM
7. CSCC(=O)N[C@@H](C[C@@H]1COc2ccccc21)B(O)O [Compound 5]	≤ 50 nM
8. O=C(N[C@@H](Cc1coc2ccccc12)B(O)O)[C@@H]1CCCO1 [Compound 26]	50 to 500 nM
9. CSCC(=O)N[C@H](Cc1coc2c(C)cccc12)B(O)O [Compound 1]	500 to 5000 nM

* * *

molecular target: Beta5 (purified human constitutive proteasome) (Homo sapiens, UniProt P20618+P28074); assay: Determination of Beta5 activity (fluorescence intensity assay, Suc-LLVY-AMC); settings: purified human constitutive proteasome 1.25 nM, incubation for 20 minutes at 25° C., Suc-LLVY-AMC 40 μM
In this section we review reported IC50 values for a set of compounds.
Measurement Type: IC50

1. CSCC(=O)N[C@@H](Cc1ccc(C)cc1C)B(O)O [Compound 21]	0.5 to 5 µM
2. CSCC(=O)N[C@@H](Cc1coc2c(C(F)(F)F)cccc12)B(O)O [Compound 3]	0.5 to 5 µM
3. O=C(N[C@@H](Cc1coc2ccccc12)B(O)O)[C@H]1CCOC1 [Compound 32]	5 to 30 µM
4. O=C(N[C@@H](Cc1coc2ccccc12)B(O)O)[C@@H]1COCCO1 [Compound 39]	0.5 to 5 µM
5. CSCC(=O)N[C@@H](CC1COc2c(C)cccc21)B(O)O (stereo partly drawn) [Compound 10]	5 to 30 µM
6. Cc1cccc2c1OC[C@H]2C[C@H](NC(=O)[C@@H]1CCOC1)B(O)O [Compound 42]	5 to 30 µM
7. Cc1cccc2c(C[C@H](NC(=O)[C@H]3CCCO3)B(O)O)coc12 [Compound 29]	0.5 to 5 µM
8. O=C(N[C@@H](Cc1coc2ccccc12)B(O)O)C1Cc2ccccc2O1 (single isomer, unassigned) [Compound 37]	0.5 to 5 µM
9. O=C(CSCCCO)N[C@@H](Cc1coc2ccccc12)B(O)O [Compound 15]	0.05 to 0.5 µM
10. CSCC(=O)NC(Cc1coc2c(F)cccc12)B(O)O (stereo not drawn) [Compound 9]	0.5 to 5 µM
11. O=C(N[C@@H](Cc1coc2ccccc12)B(O)O)C1OCCS1 (stereo partly drawn) [Compound 11]	0.05 to 0.5 µM
12. O=C(N[C@@H](Cc1coc2ccccc12)B(O)O)[C@H]1COCCO1 [Compound 40]	0.5 to 5 µM
13. CSC(C(=O)N[C@@H](Cc1coc2ccccc12)B(O)O)c1ccccc1 (single isomer, unassigned) [Compound 7]	5 to 30 µM
14. O=C(N[C@@H](Cc1coc2ccccc12)B(O)O)C1COc2ccccc21 (stereo partly drawn) [Compound 35]	0.5 to 5 µM
15. O=C(N[C@@H](Cc1coc2ccccc12)B(O)O)C1Cc2ccccc2O1 (single isomer, unassigned) [Compound 36]	0.05 to 0.5 µM
16. CCSCC(=O)N[C@@H](Cc1coc2ccccc12)B(O)O [Compound 13]	0.5 to 5 µM
17. COc1cccc2occ(C[C@H](NC(=O)CSC)B(O)O)c12 [Compound 4]	5 to 30 µM
18. O=C(N[C@@H](Cc1coc2ccccc12)B(O)O)[C@H]1CCCO1 [Compound 27]	0.5 to 5 µM

* * *

target: Beta5 (purified human constitutive proteasome) (Homo sapiens, UniProt P20618+P28074); assay: Determination of Beta5 activity (fluorescence intensity assay, Suc-LLVY-AMC); type: biochemical; conditions: purified human constitutive proteasome 1.25 nM, incubation for 20 minutes at 25° C., Suc-LLVY-AMC 40 μM
pIC50: −log10 of the molar value.
Measurement Type: pIC50

1) COCC(=O)N[C@@H](Cc1coc2ccccc12)B(O)O	5.30 to 6.30
2) Cc1cccc2c(C[C@@H](NC(=O)[C@H]3CCCO3)B(O)O)coc12	4.52 to 5.30
3) O=C(N[C@@H](Cc1coc2ccccc12)B(O)O)C1CCCS1 (stereo partly drawn)	4.52 to 5.30
4) COCCC(=O)N[C@@H](Cc1coc2ccccc12)B(O)O	6.30 to 7.30
5) CSCC(=O)N[C@H](Cc1coc2c(C)cccc12)B(O)O	4.52 to 5.30
6) CSCC(=O)N[C@@H](C[C@@H]1COc2ccccc21)B(O)O	5.30 to 6.30
7) O=C(N[C@@H](C[C@@H]1COc2ccccc21)B(O)O)[C@@H]1CCOC1	4.52 to 5.30
8) CSCC(=O)N[C@H](Cc1coc2c(F)cccc12)B(O)O	4.52 to 5.30
9) CSCC(=O)NC(CC1COc2ccccc21)B(O)O (stereo not drawn)	4.52 to 5.30
10) CC(C)(O)CC(=O)N[C@@H](Cc1coc2ccccc12)B(O)O	4.52 to 5.30
11) O=C(N[C@@H](Cc1coc2ccccc12)B(O)O)C1SCCS1	5.30 to 6.30
12) O=C(N[C@@H](Cc1coc2ccccc12)B(O)O)[C@@H]1CCCO1	4.52 to 5.30
13) O=C(N[C@@H](Cc1coc2ccccc12)B(O)O)[C@@H]1CCOC1	5.30 to 6.30
14) CSCC(=O)N[C@@H](Cc1coc2c(Cl)cccc12)B(O)O	6.30 to 7.30
15) CSCC(=O)N[C@@H](Cc1coc2c(C)c(Cl)ccc12)B(O)O	5.30 to 6.30
16) CSCC(=O)N[C@@H](Cc1coc2ccccc12)B(O)O	5.30 to 6.30
17) CSCC(=O)NC(Cc1coc2c(C)c(Cl)ccc12)B(O)O (stereo not drawn)	5.30 to 6.30
18) O=C(N[C@@H](Cc1coc2ccccc12)B(O)O)C1OCCc2ccccc21 (stereo partly drawn)	5.30 to 6.30
19) CSCC(=O)N[C@@H](Cc1coc2c(F)cccc12)B(O)O	6.30 to 7.30
20) O=C(CCO)N[C@@H](Cc1coc2ccccc12)B(O)O	5.30 to 6.30
21) CSCC(=O)N[C@@H](Cc1coc2c(C)cccc12)B(O)O	6.30 to 7.30

Values from patent US20210317145A1
